# Tested on: gum arabic
# Experiment Summary: VHH binding to gum arabic in ELISA
# Parameters: species or system acacia tree
# Settings: [VHH] 3 μg/ml (200 nM); no gum arabic coat (−)
Measured Property: absorbance at 405 nm
One number for each entry.

[[record]]
molecule = "VHH 5G5 (VHH, Hexahistidine-tagged) VHH: QVQLQESGGGLVQPGGSLRLSCAASGFSLRYFGIGWFRQAAGKEREGISCSNVRDGNTYYADSVKGRFTISRDNVRNMLYLQMNNLKPDDTAVYSCATTDCEATTWGTYRGYFGQGTQVTVSS"
measured_property = "absorbance at 405 nm"
measured_result = 0.077

[[record]]
molecule = "VHH7C2: plant-binding VHH, listed among SEQ ID NO:1-42 (protein, listed as Lama glama, 7C2) VHH: QVQLQESGGGLVQPGGSLRLSCAAFGFALANYGIGWFRQAPGKDRERVSCDSVDDGSTHYSNSVQGRFTIIRDNAKNTVFLQMNSLKAEDTAVYYCATTDCDATTWGTWINYRGQGTQVTVSS"
measured_property = "absorbance at 405 nm"
measured_result = 0.077

[[record]]
molecule = "VHH 5D4 (VHH, Hexahistidine-tagged) VHH: QVQLQESGGGLVQPGGSLRLSCAASGFDMRRFGIGWFRQVAGKEREGVSCSNVHDGTTYYTNDVKGRFTIVRDNTKNMLYLQMNKLRPEDTAVYSCATTDCEATAWGTYRGYFGQGTQVTVSS"
measured_property = "absorbance at 405 nm"
measured_result = 0.075


Then there is this molecule:
Look up absorbance at 405 nm for this molecule: VHH5F5: plant-binding VHH, listed among SEQ ID NO:1-42 (protein, listed as Lama glama, 5F5) VHH: QVQLQESGGGLVQPGGSLRLSCAASGFPLGLYGIGWFRQAPGKEREAVSCDSVDDGSTNYLDSVKGRFTISRDNAKNMVYLQMNSLKPEDTAVYYCATTDCDAKAWGTWTNYRGQGTQVTVSS
0.090
